B1: Hairpin Ribozyme (parent)
chain: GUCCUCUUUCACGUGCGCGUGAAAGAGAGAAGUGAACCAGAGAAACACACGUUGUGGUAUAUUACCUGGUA

- Variants of: B1
- EXPERIMENT SUMMARY: self-cleavage, relative activity (ratio to wild type); higher = more cleavage; co-transcriptional
Param threshold (0.2) applies to self-cleavage; output Fulfilled when value >= threshold, Not fulfilled when value < threshold.

Example cases with answers are listed next.
U62C A71U : Fulfilled
A23U A30U : Not fulfilled
C10U G54A : Fulfilled
C6G G42U : Not fulfilled
C18U G54U : Fulfilled

Prompt: Check this variant for self-cleavage at or above 0.2: U7C A39U
Response: Fulfilled

Prompt: Check this variant for self-cleavage at or above 0.2: C3G A43G
Response: Not fulfilled

Prompt: Check this variant for self-cleavage at or above 0.2: C3A G40C
Response: Not fulfilled

Prompt: Check this variant for self-cleavage at or above 0.2: G21C G54U
Response: Fulfilled

Prompt: Check this variant for self-cleavage at or above 0.2: G13A G17C
Response: Fulfilled

Prompt: Check this variant for self-cleavage at or above 0.2: A41U G42C
Response: Fulfilled

Prompt: Check this variant for self-cleavage at or above 0.2: G51A G56C
Response: Not fulfilled

Prompt: Check this variant for self-cleavage at or above 0.2: G1C G19U
Response: Not fulfilled

Prompt: Check this variant for self-cleavage at or above 0.2: C3A C66G
Response: Fulfilled
